assay_method_text: Drug excretion in rat bile assessed as unchanged compound level at 2.5 mg/kg, iv
Format: ADME, organism-based
measurement_conditions: read-out: Drug excretion
assay_readout: dose excreted
Don't forget the unit after the number, please.

Form: molecule = COC(=O)N[C@H](C(=O)N1CC(F)(F)C[C@H]1c1ncc(-c2ccc(-c3ccc4c(ccc5nc([C@@H]6C[Si](C)(C)CN6C(=O)[C@@H](NC(=O)OC)C(C)C)[nH]c54)c3)cc2)[nH]1)C(C)C ; dose excreted = 27%

###

assay_method_text: Oral bioavailability in beagle dog at 1 mg/kg by LC-MS/MS method
Assay type: ADME, organism-based, Canis lupus familiaris
measurement_conditions: in vivo
assay_readout: bioavailability (%)
Dear colleague, please return just the value in %, with no unit written.

# compound COC(=O)N[C@H](C(=O)N1CCC[C@H]1c1ncc(-c2ccc(-c3cc4cc(-c5cnc([C@@H]6CCCN6C(=O)[C@@H](NC(=O)OC)C(C)C)[nH]5)ccc4o3)cc2)[nH]1)C(C)C ; its bioavailability = 26
